tested on: Staphylococcus aureus ATCC 29213; assay: Suspension quantitative sterilization experiment, Staphylococcus aureus ATCC 29213; format: cell-based; conditions: suspension method, 6.25 g/L, action time 30 min
The label is true (1) for Activity (killing logarithmic value) below 0.9 and false (0) for Activity (killing logarithmic value) equal to or exceeding 0.9.

compound="CNC(=O)C(c1ccc(O)c(O)c1)C1CCCCC1 (stereo not shown)" category_label="false (0)"
compound="CNC(=O)C(c1ccncc1)c1ccc(O)c(O)c1 (stereo not shown)" category_label="false (0)"
compound="CNC(=O)C(c1ccccc1)c1ccc(F)c(F)c1 (stereo not shown)" category_label="false (0)"
compound="Cc1ccc(C(C(=O)O)c2ccc(O)cc2)cc1 (stereo not shown)" category_label="true (1)"
compound=O=C(O)C(c1ccccc1)c1ccccc1 category_label="false (0)"
